// data source = paper PMC10397247

- Measured On: T1, 4H3029-AA
- T1 chain: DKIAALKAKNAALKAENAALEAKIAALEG
- Protocol: two-hybrid library CCmax;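 further: natural log of median RNA to DNA barcode read ratio; higher means stronger binding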
- Measurement Parameters: mean of both orientations
Listing: interaction score of selected binders
Give the figure only, with no unit attached.

# example entries with known answers
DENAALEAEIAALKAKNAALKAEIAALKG [4H1146-AA] :: -1.14
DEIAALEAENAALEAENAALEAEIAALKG [4H146-AA] :: 2.06
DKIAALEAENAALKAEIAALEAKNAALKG [4H2248-AA] :: -1.79
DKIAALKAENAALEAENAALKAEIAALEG [4H2713-AA] :: 1.75

From here, focus on the item given below.
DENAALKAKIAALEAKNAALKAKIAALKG [4H1854-AA] has a reported interaction score of -0.674
